Exercise: state measured IC50 for each of the compounds provided.
targetSystem: Acetyl-CoA carboxylase (Homo sapiens, UniProt Q13085+O00763)
testDetails: Inhibition of human ACC1/2 assessed as [14C]malonyl-CoA synthesis
Type: protein assay
Remember to follow the number with its unit.

What measured IC50 goes with CCNC(=O)Nc1sc2ccccc2c1C(=O)N1CCN(C2CCN(C(=O)OC)CC2)CC1 ? 175 nM

What measured IC50 goes with CCNC(=O)Nc1sc2cc(OC)ccc2c1C(=O)N1CCN(C2CCN(C(=O)OC(C)(C)C(F)(F)F)CC2)CC1 ? 27 nM

Value lookup for IC50; key = CCNC(=O)Nc1sc2ccccc2c1C(=O)N1CCN(C2CCN(C(=O)OC(C)(C)CF)CC2)CC1 17 nM

Quick check: IC50 of CC(=O)N1CCC(C(=O)N2CCC(N3CCN(C(=O)c4cc(-c5ccc(C)cc5)nc(-c5ccc6[nH]c(C)c(C)c6c5)c4)CC3)CC2)CC1 ? 33 nM

Look up IC50 for this compound: CCNC(=O)Nc1sc2ccccc2c1C(=O)N1CCN(C2CCN(C(=O)OC3CCCCC3)CC2)CC1 76 nM

Endpoint output: IC50 of CCNC(=O)Nc1sc2ccccc2c1C(=O)N1CCN(C2CCN(C(C)=O)CC2)CC1 . Value? 1864 nM

Form field: reported IC50 of CCNC(=O)Nc1sc2cccnc2c1C(=O)N1CCN(C2CCN(C(=O)OC(C)(C)C(F)(F)F)CC2)CC1 12 nM

Item CCNC(=O)Nc1sc2ccccc2c1C(=O)N1CCN(C2CCN(C(=O)OC(C)(C)C(F)(F)F)CC2)CC1 has what recorded IC50? 31 nM

Which value of IC50 has been reported for CCNC(=O)Nc1sc2ncccc2c1C(=O)N1CCN(C2CCN(C(=O)OC(C)(C)C(F)(F)F)CC2)CC1 in the records? 45 nM

IC50 for CCNC(=O)Nc1sc2ccccc2c1C(=O)N1CCN(C2CCN(C(=O)C(C)C)CC2)CC1 ? 131 nM

What value of IC50 has been recorded for this entry: CCNC(=O)Nc1sc2cc(F)ccc2c1C(=O)N1CCN(C2CCN(C(=O)OC(C)(C)C(F)(F)F)CC2)CC1 62 nM

Which IC50 value is on record for CCNC(=O)Nc1sc2ccccc2c1C(=O)N1CCN(C2CCN(C(=O)C3CCCC3)CC2)CC1.O=C(O)/C=C\C(=O)O ? 49 nM

Can you share its IC50? I mean this compound: CCNC(=O)Nc1sc2ccccc2c1C(=O)N1CCN(C2CCN(C(=O)OC3CCCC3)CC2)CC1 52 nM

Please give the measured IC50 for this compound: CCCCC(=O)N1CCC(N2CCN(C(=O)c3c(NC(=O)NCC)sc4ccccc34)CC2)CC1 207 nM

Request the reported IC50 associated with CCNC(=O)Nc1sc2cc(C)ccc2c1C(=O)N1CCN(C2CCN(C(=O)OC(C)C)CC2)CC1 60 nM

State the recorded IC50 for this entry: CCNC(=O)Nc1sc2ccccc2c1C(=O)N1CCN(C2CCN(C(=O)CC(C)C)CC2)CC1 144 nM

Dear colleague, I am looking for the recorded IC50 of the following compound: CCNC(=O)Nc1sc2ccccc2c1C(=O)N1CCN(C2CCN(C(=O)OC(C)(C)C)CC2)CC1 24 nM

Form field: reported IC50 of CCNC(=O)Nc1sc2ccncc2c1C(=O)N1CCN(C2CCN(C(=O)OC(C)(C)C(F)(F)F)CC2)CC1 117 nM

Looking for the measured IC50 of CCNC(=O)Nc1sc2ccccc2c1C(=O)N1CCN(C2CCN(C(=O)C(C)(C)C)CC2)CC1 , can you help? 109 nM

Look up IC50: CCNC(=O)Nc1sc2cc(C(F)(F)F)ccc2c1C(=O)N1CCN(C2CCN(C(=O)OC(C)(C)C(F)(F)F)CC2)CC1 98 nM

Please give the measured IC50 for this compound: CCCC(=O)N1CCC(N2CCN(C(=O)c3c(NC(=O)NCC)sc4ccccc34)CC2)CC1 242 nM

Given CCNC(=O)Nc1sc2ccccc2c1C(=O)N1CCN(C2CCN(C(=O)NC(C)(C)C)CC2)CC1 , state its recorded IC50. 119 nM

Give the measured IC50 of CCNC(=O)Nc1sc2ccccc2c1C(=O)N1CCN(C2CCN(C(=O)OC(C)C)CC2)CC1 . 28 nM

Reported IC50 for CCNC(=O)Nc1sc2ccccc2c1C(=O)N1CCN(C2CCN(C(=O)C3CCCCC3)CC2)CC1 : what is it? 81 nM

What value of measured IC50 is listed for CCNC(=O)Nc1sc2ccccc2c1C(=O)N1CCN(C2CCN(C(=O)CC)CC2)CC1 ? 597 nM

What IC50 value was documented for this compound, CCNC(=O)Nc1sc2cnccc2c1C(=O)N1CCN(C2CCN(C(=O)OC(C)(C)C(F)(F)F)CC2)CC1 ? 41 nM

Tell me the measured IC50 of CCNC(=O)Nc1sc2ccccc2c1C(=O)N1CCN(C2CCN(C(=O)C3CCN(C(C)=O)CC3)CC2)CC1.O=C(O)/C=C\C(=O)O , please. 74 nM
